- TARGET OR SYSTEM: PI3K β (p110β/p85α) (Homo sapiens)
- Construct: purchased Upstate / Millipore Corporation
- Sequence (P42338 whole entry, one chain of several): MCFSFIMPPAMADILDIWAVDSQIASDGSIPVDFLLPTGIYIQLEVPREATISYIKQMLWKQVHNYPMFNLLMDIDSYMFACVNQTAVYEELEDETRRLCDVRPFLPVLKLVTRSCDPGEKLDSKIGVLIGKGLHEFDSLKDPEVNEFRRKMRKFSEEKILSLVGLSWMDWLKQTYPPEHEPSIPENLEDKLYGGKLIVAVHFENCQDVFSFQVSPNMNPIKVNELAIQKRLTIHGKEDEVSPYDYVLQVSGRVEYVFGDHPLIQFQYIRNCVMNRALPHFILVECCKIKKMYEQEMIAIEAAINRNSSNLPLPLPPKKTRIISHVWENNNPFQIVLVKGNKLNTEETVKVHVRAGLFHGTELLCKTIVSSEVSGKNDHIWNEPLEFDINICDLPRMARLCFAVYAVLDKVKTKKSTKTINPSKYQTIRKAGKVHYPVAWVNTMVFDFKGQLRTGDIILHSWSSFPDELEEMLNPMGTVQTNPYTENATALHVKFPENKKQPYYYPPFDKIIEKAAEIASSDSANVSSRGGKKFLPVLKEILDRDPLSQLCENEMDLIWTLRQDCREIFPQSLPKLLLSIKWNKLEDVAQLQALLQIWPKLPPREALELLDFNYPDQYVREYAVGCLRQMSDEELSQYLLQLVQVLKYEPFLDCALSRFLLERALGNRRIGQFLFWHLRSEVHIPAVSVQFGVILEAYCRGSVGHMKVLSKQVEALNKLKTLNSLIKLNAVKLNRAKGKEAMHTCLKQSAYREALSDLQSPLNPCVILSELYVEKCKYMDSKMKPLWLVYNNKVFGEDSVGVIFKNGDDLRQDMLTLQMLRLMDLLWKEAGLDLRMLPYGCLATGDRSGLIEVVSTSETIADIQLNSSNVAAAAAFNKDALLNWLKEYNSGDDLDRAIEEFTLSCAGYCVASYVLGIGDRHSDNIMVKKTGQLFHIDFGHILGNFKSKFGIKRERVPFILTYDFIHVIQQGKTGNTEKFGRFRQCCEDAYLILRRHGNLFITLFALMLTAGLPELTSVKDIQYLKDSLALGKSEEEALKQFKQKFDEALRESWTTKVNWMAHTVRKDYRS
- EXPERIMENTAL PROTOCOL: PI 3-Kinase (human) HTRF assay, PI3K β
- Assay type: biochemical
- MEASUREMENT SETUP: read-out: PI3K β IC50
pIC50: −log10 of the molar value.
TEST READOUT: pIC50

Nc1nc2cc(-c3ccc4ncnc(NC5CCOCC5)c4c3)ccc2o1: > 6.00
Nc1nc2ccc(-c3cc(F)c4oc(N)nc4c3)cc2o1: > 6.00
CN1CCN(c2cnc3ccc(-c4ccc5oc(N)nc5c4)cc3n2)CC1=O: > 6.00
CN(C)[C@H]1CCN(c2cnc3ccc(-c4ccc5oc(N)nc5c4)cc3n2)C1: > 6.00

Would you mind giving pIC50 for every compound in the list below?
1. CN1CC(C(=O)N2CCN(c3cnc4ccc(-c5ccc6oc(N)nc6c5)cc4n3)CC2)C1
2. O=C(c1cnc2ccc(-c3cnc(Cl)c4[nH]ncc34)cn12)N1CCOCC1
3. Nc1nc2cc(-c3ccc4ncc(C(=O)N5CC(n6cccn6)C5)n4c3)ccc2o1
4. CCN1CCC(n2cnc3ccc(-c4ccc5oc(N)nc5c4)cc3c2=O)CC1
5. Nc1nc2cc(-c3ccc4ncc(N5CCS(=O)(=O)CC5)nc4c3)ccc2o1

> 6.00
< 5.00
< 5.00
> 5.00
< 5.00

====

- TARGET OR SYSTEM: PI3K α (p110α/p85α) (Homo sapiens, UniProt P42336)
- Construct: purchased Upstate / Millipore Corporation
- Sequence (P42336 whole entry): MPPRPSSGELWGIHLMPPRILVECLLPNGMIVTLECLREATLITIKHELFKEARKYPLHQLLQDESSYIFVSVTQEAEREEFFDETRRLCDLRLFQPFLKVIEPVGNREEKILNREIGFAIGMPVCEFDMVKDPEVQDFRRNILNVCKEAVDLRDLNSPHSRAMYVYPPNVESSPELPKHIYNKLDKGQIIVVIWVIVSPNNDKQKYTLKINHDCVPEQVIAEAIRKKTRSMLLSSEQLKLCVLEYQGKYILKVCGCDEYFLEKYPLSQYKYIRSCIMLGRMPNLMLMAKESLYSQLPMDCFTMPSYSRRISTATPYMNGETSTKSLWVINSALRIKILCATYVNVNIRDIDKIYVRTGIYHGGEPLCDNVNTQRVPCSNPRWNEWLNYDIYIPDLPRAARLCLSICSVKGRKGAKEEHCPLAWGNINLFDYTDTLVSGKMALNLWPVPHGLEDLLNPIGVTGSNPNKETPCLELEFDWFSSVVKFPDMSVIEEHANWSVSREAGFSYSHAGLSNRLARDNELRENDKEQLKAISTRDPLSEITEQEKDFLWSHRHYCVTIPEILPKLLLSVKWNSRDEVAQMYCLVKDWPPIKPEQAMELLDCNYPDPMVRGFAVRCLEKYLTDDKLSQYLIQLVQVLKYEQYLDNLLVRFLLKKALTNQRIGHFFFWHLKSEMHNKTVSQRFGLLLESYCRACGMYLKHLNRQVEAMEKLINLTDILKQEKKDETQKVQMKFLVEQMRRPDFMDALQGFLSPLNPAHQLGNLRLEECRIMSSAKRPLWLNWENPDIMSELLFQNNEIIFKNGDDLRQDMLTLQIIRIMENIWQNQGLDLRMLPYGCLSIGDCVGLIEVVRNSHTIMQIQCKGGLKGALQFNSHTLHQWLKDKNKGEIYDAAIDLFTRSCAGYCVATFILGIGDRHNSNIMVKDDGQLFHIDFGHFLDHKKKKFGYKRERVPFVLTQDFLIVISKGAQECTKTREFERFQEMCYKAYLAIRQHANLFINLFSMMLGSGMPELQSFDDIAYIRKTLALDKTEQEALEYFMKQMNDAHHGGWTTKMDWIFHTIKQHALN
- Sequence (P27986 whole entry partner): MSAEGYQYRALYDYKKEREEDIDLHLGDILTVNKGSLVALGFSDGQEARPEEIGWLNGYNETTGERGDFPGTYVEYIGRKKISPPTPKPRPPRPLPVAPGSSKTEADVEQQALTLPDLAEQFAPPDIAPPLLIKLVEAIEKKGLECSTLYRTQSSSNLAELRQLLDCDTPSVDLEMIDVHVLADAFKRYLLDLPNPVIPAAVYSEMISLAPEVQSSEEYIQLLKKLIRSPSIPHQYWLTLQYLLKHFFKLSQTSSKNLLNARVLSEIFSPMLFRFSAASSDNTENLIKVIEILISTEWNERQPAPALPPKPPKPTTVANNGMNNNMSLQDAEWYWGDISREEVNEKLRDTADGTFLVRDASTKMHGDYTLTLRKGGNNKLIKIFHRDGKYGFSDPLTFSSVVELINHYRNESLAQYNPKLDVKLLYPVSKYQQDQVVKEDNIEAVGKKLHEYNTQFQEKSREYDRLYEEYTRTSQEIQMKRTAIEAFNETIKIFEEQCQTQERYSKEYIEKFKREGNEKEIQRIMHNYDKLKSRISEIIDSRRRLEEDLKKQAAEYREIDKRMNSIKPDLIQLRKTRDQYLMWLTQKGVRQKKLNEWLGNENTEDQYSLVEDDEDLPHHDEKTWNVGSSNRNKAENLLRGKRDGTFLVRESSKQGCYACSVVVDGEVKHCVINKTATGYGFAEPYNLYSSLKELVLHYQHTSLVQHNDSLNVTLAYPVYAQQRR
- EXPERIMENTAL PROTOCOL: PI 3-Kinase (human) HTRF assay, PI3K α
- Type: biochemical
- MEASUREMENT SETUP: read-out: PI3K α IC50
pIC50: −log10 of the molar value.
TEST READOUT: pIC50

Before answering, review these 5 worked examples.
Nc1nc2cc(-c3cnc4ccc(C(=O)N5C6CCC5COC6)cn34)ccc2o1: < 5.00
C[C@H]1CN(c2cnc3cccc(-c4ccc5oc(N)nc5c4)c3n2)CCN1: < 5.00
Nc1nc2cc(-c3ccc4ncc(-c5cn[nH]c5)n4c3)ccc2o1: > 7.00
CS(=O)(=O)N1CCC(Nc2cnc3ccc(-c4ccc5oc(N)nc5c4)cc3n2)CC1: > 7.00
Cc1cc(-c2ccc3nc(N)oc3c2)cn2c(CCN3CCN(C)CC3)nnc12: < 5.00

Would you mind giving pIC50 for every molecule in the list below?
1. Nc1nc2cc(-c3ccc4oc(N)nc4c3)ccc2o1
2. Nc1nc2cc(-c3ccc4ncc(-c5ccncc5)n4c3)ccc2o1
3. Nc1nc2cc(-c3ccc4ncc(N5CCNC(=O)C5)nc4c3)ccc2o1

["> 6.00", "> 7.00", "> 7.00"]

Would you mind giving pIC50 for every molecule in the list below?
1. Nc1nc2cc(-c3ccc4ncc(C(=O)NCCCN5CCCC5)n4c3)ccc2o1
2. CN1CC2CN(C(=O)c3cnc4ccc(-c5ccc6oc(N)nc6c5)cn34)CC2C1 (centres unmarked)
3. Nc1nc2cc(-c3ccc4ncc(=O)[nH]c4c3)ccc2o1
4. Nc1nc2cc(-c3ccc4ncc(C(=O)N5CCOCC5)n4c3)ccc2s1

1. > 7.00
2. > 7.00
3. > 7.00
4. > 6.00

Would you mind giving pIC50 for every molecule in the list below?
1. Nc1nc2cc(-c3ccc4nc(N)c(N5CC(N6CCOCC6)C5)nc4c3)ccc2o1
2. CN1CCN(c2nnc3ccc(-c4ccc5nc(N)oc5c4)cn23)CC1

1: < 5.00; 2: < 5.00
